Target: ovine COX-1 (Ovis aries (Sheep), UniProt P05979)
Sequence (P05979 25-600): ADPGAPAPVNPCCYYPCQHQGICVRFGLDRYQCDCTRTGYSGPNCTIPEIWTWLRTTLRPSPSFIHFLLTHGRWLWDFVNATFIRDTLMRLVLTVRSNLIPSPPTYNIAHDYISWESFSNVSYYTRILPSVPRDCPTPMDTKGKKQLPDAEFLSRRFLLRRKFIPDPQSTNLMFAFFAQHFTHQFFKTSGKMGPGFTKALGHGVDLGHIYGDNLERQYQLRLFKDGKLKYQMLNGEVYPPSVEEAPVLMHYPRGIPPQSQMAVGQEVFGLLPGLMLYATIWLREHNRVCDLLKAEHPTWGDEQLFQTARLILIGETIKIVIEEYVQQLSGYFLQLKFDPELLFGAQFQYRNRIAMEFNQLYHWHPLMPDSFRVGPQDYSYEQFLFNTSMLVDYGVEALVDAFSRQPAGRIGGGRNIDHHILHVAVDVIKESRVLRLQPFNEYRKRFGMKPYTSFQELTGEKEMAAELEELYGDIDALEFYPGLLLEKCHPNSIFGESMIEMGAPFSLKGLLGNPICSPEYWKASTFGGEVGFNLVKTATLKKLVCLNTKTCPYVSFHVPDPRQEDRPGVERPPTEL
readout_label: pIC50
Friendly reminder that pIC50 comes from taking -log10 of the concentration in mol/L.

Reference set (2 entries):
| compound | test_system | reported_value |
| --- | --- | --- |
| CCCCNC(=O)Oc1cccc(-c2ccc(C(C)C(=O)O)cc2F)c1 (stereo not drawn) [Example 10] | ovine COX-1 (Ovis aries (Sheep), UniProt P05979) | 6.59 |
| CCCCCCNC(=O)Oc1cccc(-c2ccc(C(C)C(=O)O)cc2F)c1 (single isomer, unassigned; (-)) [Example 19] | ovine COX-1 (Ovis aries (Sheep), UniProt P05979) | 4.89 |

Now consider the entry below.
Input line: For the compound CCCCCCNC(=O)Oc1ccccc1-c1ccc(C(C)C(=O)O)cc1F (stereo not drawn) [Example 17] , give its measured pIC50 value.
Output line: 6.14
